Each item that follows carries a reported % Inhibition TF-VIIa (100 µM).
- Experimental target: TF-VIIa (Homo sapiens)
- Construct: 2nM recombinant human factor VIIa; purchased American Diagnostica, Greenwich CT; host or cells: soluble TF made in house in E. coli
- Sequence (P08709 213-466 limits assumed): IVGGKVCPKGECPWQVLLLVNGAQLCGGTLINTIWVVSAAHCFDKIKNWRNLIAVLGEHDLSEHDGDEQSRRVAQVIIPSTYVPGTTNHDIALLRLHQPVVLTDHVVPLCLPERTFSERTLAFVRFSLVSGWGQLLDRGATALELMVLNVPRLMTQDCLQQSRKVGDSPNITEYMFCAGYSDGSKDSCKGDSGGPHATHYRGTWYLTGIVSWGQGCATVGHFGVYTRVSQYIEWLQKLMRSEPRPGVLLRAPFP
- Sequence (P08709 61-212 limits assumed): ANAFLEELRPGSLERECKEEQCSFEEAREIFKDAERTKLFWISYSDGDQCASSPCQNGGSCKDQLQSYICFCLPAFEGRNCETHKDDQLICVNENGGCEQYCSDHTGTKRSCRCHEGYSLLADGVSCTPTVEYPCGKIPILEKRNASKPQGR
- Sequence (P13726 33-251 partner limits assumed): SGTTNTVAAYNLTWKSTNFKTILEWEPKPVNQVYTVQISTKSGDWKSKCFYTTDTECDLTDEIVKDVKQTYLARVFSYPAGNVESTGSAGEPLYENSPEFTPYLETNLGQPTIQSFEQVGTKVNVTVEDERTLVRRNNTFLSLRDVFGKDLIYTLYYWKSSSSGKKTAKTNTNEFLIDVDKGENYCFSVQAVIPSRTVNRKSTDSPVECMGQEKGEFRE
- Assay comment: TF-VIIa Assay
- Assay type: biochemical
- Recorded conditions: 100 µM
API: value field is a number in %; no unit string.

Study these solved cases before continuing.
Readout % Inhibition TF-VIIa (100 µM) for COc1ccc(-c2c(Cl)nc(NCCc3ccccc3)c(=O)n2CC(=O)NCCc2ccncc2)cc1 , test system TF-VIIa (Homo sapiens), was 0

Readout % Inhibition TF-VIIa (100 µM) for O=C(Cn1c(-c2cccc(Cl)c2)c(Cl)nc(NCc2ccccc2)c1=O)NCCc1cccnc1 [Example E-0086] , test system TF-VIIa (Homo sapiens), was 0

Readout % Inhibition TF-VIIa (100 µM) for O=C(Cn1c(-c2ccc(-c3ccccc3)cc2)c(Cl)nc(NCCc2ccccc2)c1=O)NCCc1ccncc1 [Example E-0112] , test system TF-VIIa (Homo sapiens), was 11

Now look at this entry.
Readout % Inhibition TF-VIIa (100 µM) for O=C(Cn1c(-c2ccc(Cl)cc2)c(Cl)nc(NCc2ccncc2)c1=O)NCCc1ccncc1 [Example E-0032] , test system TF-VIIa (Homo sapiens), was 0

Entry source: patent EP1202975B1
